Below is a list of entries, each paired with its recorded BCL-XL % Bound value.
biological target: BCL-XLΔC (Homo sapiens); assay: Competitive fluorescence polarization binding screen, FITC-BAD BH3/BCL-XLΔC; conditions: FITC-BAD BH3/BCL-XLΔC interaction
Sequence (Q07817 1-212 limits assumed, stated change not applied): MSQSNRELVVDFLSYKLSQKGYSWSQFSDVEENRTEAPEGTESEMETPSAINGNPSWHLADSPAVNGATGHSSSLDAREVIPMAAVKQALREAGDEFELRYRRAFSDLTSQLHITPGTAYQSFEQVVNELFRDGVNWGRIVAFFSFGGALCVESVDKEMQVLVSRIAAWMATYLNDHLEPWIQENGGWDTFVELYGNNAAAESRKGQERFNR

compound | BCL-XL % Bound (%)
O=C(/C=C/c1ccc(Br)o1)OCC(=O)c1c[nH]c2ccccc12 | 105.6
COc1ccc(/C=c2\s/c(=C\C(=O)c3ccco3)[nH]c2=O)cc1O | 263.7
CCSC1=C(C#N)C(=O)NC(c2ccc(O)cc2)S1 (stereo not shown) | 84.82
CCN(CC)c1cc(C)c2cc(NC(=O)/C=C/c3ccco3)ccc2n1 | 79.88

---

Below is a list of entries, each paired with its recorded Spec Values value.
test system: MCL-1ΔNΔC; experiment: Competitive fluorescence polarization binding screen, FITC-MCL-1 SAHB/MCL-1ΔNΔC; details: selectivity for MCL-1ΔNΔC over BCL-XLΔC (BCL-XL % Bound minus MCL-1 % Bound)

molecule | Spec Values
CC1CCN(C2=NN3C(=N)/C(=C\c4ccc(SCc5ccco5)o4)C(=O)N=C3S2)CC1 | 70.38
O=c1c(O)c(-c2ccc(O)c(O)c2)oc2cc(O)cc(O)c12 | 88.65
O=C(/C=C/c1ccco1)NC(=S)Nc1ccccc1C(F)(F)F | 52.25
C/C(=N\OCc1ccc(C(=O)N2CCCCC2)o1)c1cccc(C(F)(F)F)c1 | 55.34
CN1CCN(C(c2ccccn2)c2c(-c3ccccc3)n(O)c3ccccc23)CC1 (stereo not shown) | 49.28
Cc1ccc(C)n1-c1cc(Cl)ccc1C(=O)O | 79.84
COc1cc(C(c2nnnn2C2CCCCC2)N2CCc3ccccc3C2)ccc1O (stereo not shown) | 48.33
Oc1cccnc1NC(c1ccc(F)cc1)c1ccc2cccnc2c1O (stereo not shown) | 71.24
Cc1c(Cl)cccc1N1C(=O)CC(N2CCCc3ccccc32)C1=O (stereo not shown) | 48.92
Cc1ccc(/C=C2\C(=O)Nc3ccc(Br)cc32)o1 [drawing 54] | 58.85
Cc1ccc(/C=C2\C(=O)Nc3ccc(Br)cc32)o1 [drawing 279] | 58.85
O=C(/C=C/c1ccc(Br)o1)OCC(=O)c1c[nH]c2ccccc12 | 52.14
Cc1cc(NC(=O)/C=C/c2ccco2)n(-c2nc3ccccc3n2Cc2cccc(Oc3ccccc3)c2)n1 | 48.1
COc1ccc(-c2nc3scc(CCNC(=O)/C=C/c4ccco4)n3n2)cc1 | 46.24
O=C(CCN1C(=O)/C(=C\C=C\c2ccco2)SC1=S)Nc1ccc(C(=O)O)c(O)c1 | 54.54

These measurements were taken from patent US10000511B2.
